Test: soluble on expression in E. coli; label from the status in PepcDB or PDB records
Readout label: soluble on expression in E. coli

MDTLQNMRAFSSVAQAGSFTAAAAVLDTTTANVSRAVSNLEAHLQTRLLNRTTRRIALTEAGKRYLLRCEQILASVEEAEAEASDAHARPAGQLKVHSMPGVGQHYVIDAIARYRRNHPDVAFDLTMTHRVPDLLEEGFDVSIVLASELADSGFVSQRLGITYSIVCASPEYVKTFGMAHKPADLLNHACLRLVSPVFPLDKWLFDGPEGQEMVTINSSPLLVNSADAMKTAISSGMGIGILPIYSAIEGLRNGTLVRVLSDYRSQELNLYAIYPSRQYLDAKIRTWVEYLRGSLPEILAADEADLHVQALKASC; not soluble
MMNEPQVSFITVCYNGFKDTCELIESLQTHVHSVSYEIIVVDNASREDEATKIKELYSDIVTLRSESNLGFSGGNNLGIRVAKGAYIFLINNDTYVESDGFHYLTERLESQKNIGAVSPKIRFAFPPQNIQFAGFTSLSAITIRNEMTGFGCPDDGTFDTPHTTPYLHGAALMVKREVIEKVGEMPEIFFLYYEEMDWCTQMTNAGYELWYEPRCTVFHKESQSTGQFSKLRTFYMTRNRLLYTRRNRKGAQRLLSILYQSTIAAGKNSLQFAVKGRFDLFAAVWKGVVRSFSVTSPIRLEHHHHHH; not soluble
MGRVFMVDLEGNIYICKLCKTHLSTDQDIMSKSFQCKNGRAYLFNNVVNVSVGEKEDRMMITGLHNVVDIFCVGCGSNVGWKYEFAHEKSQKYKEGKSVLELYKISGPHDSNDLVSDGDDA; not soluble
